Assign MIC to each entry below.
Tested on: K. pneumoniae ATCC 13883 (KP109)
Kindly answer with a numeric value in µg/mL, unit omitted.

Query block: What value of MIC has been recorded for this entry: CCCCCNCC(=O)Nc1cc(F)c2c(c1O)C(=O)C1=C(O)[C@]3(O)C(=O)C(C(N)=O)=C(O)[C@@H](N(C)C)[C@@H]3C[C@@H]1C2 [Compound 26]
Result block: 2

Query block: // next record COCCCNCC(=O)Nc1cc(F)c2c(c1O)C(=O)C1=C(O)[C@]3(O)C(=O)C(C(N)=O)=C(O)[C@@H](N(C)C)[C@@H]3C[C@@H]1C2 [Compound 27]
Result block: 8

Query block: Also check COCCNCC(=O)Nc1cc(F)c2c(c1O)C(=O)C1=C(O)[C@]3(O)C(=O)C(C(N)=O)=C(O)[C@@H](N(C)C)[C@@H]3C[C@@H]1C2 [Compound 21]
Result block: 2

Query block: Try the compound CN(C)[C@@H]1C(O)=C(C(N)=O)C(=O)[C@@]2(O)C(O)=C3C(=O)c4c(O)c(NC(=O)CN5CC[C@@H](O)C5)cc(F)c4C[C@H]3C[C@@H]12 [Compound 39]
Result block: 16

Query block: Quick one: CCCN(C)CC(=O)Nc1cc(F)c2c(c1O)C(=O)C1=C(O)[C@]3(O)C(=O)C(C(N)=O)=C(O)[C@@H](N(C)C)[C@@H]3C[C@@H]1C2 [Compound 28]
Result block: 4

---

Tested on: S. aureus SA158 (tet resistant: tetK efflux)
Assay: microbe, parasite or virus in culture
Assay type: cell-based
Conditions: Staphylococcus aureus, read-out: MICs SA158
MEASURE: MIC (µg/mL)
Report the figure in µg/mL without appending any unit label.

Query block: Please give the measured MIC for this compound: "CN(C)[C@@H]1C(O)=C(C(N)=O)C(=O)[C@@]2(O)C(O)=C3C(=O)c4c(O)c(NC(=O)CN5CC[C@@H](F)C5)cc(F)c4C[C@H]3C[C@@H]12"
Result block: 0.5

Query block: Same read-out for "CN(C)[C@@H]1C(O)=C(C(N)=O)C(=O)[C@@]2(O)C(O)=C3C(=O)c4c(O)c(NC(=O)CN5CCC5)cc(F)c4C[C@H]3C[C@@H]12" ?
Result block: 0.5

Query block: Note, next up: "CCCNCC(=O)Nc1cc(F)c2c(c1O)C(=O)C1=C(O)[C@]3(O)C(=O)C(C(N)=O)=C(O)[C@@H](N(C)C)[C@@H]3C[C@@H]1C2"
Result block: 0.5

Query block: Please give the result for "CC(C)NCC(=O)Nc1cc(F)c2c(c1O)C(=O)C1=C(O)[C@]3(O)C(=O)C(C(N)=O)=C(O)[C@@H](N(C)C)[C@@H]3C[C@@H]1C2" too.
Result block: 0.5

Query block: Follow-up item: "CCCCCNCC(=O)Nc1cc(F)c2c(c1O)C(=O)C1=C(O)[C@]3(O)C(=O)C(C(N)=O)=C(O)[C@@H](N(C)C)[C@@H]3C[C@@H]1C2"
Result block: 1

Query block: Repeat for the following compound: "CC(C)CNCC(=O)Nc1cc(F)c2c(c1O)C(=O)C1=C(O)[C@]3(O)C(=O)C(C(N)=O)=C(O)[C@@H](N(C)C)[C@@H]3C[C@@H]1C2"
Result block: 0.25

Query block: Then "CN(C)[C@@H]1C(O)=C(C(N)=O)C(=O)[C@@]2(O)C(O)=C3C(=O)c4c(O)c(NC(=O)CNc5ccccc5)cc(F)c4C[C@H]3C[C@@H]12" ?
Result block: 2

Query block: Another compound to check: "CCCCCCNCC(=O)Nc1cc(F)c2c(c1O)C(=O)C1=C(O)[C@]3(O)C(=O)C(C(N)=O)=C(O)[C@@H](N(C)C)[C@@H]3C[C@@H]1C2"
Result block: 0.25

---

Tested on: S. aureus SA161 (tet resistant: tet(M) ribosomal protection)
Assay: Minimum inhibitory concentration assay, SA161
Type: cell-based
Conditions: Staphylococcus aureus, read-out: MICs SA161
Quick rule for you: MIC under 0.5 µg/mL gets y, anything else gets n.

Query block: In the record for "CN(C)[C@@H]1C(O)=C(C(N)=O)C(=O)[C@@]2(O)C(O)=C3C(=O)c4c(O)c(NC(=O)CNc5ccccc5)cc(F)c4C[C@H]3C[C@@H]12" , is MIC less than 0.5 µg/mL?
Result block: n

Query block: Please answer likewise for "CN(C)[C@@H]1C(O)=C(C(N)=O)C(=O)[C@@]2(O)C(O)=C3C(=O)c4c(O)c(NC(=O)CN5CCOCC5)cc(F)c4C[C@H]3C[C@@H]12"
Result block: n

Query block: Now try "CCCN(C)CC(=O)Nc1cc(F)c2c(c1O)C(=O)C1=C(O)[C@]3(O)C(=O)C(C(N)=O)=C(O)[C@@H](N(C)C)[C@@H]3C[C@@H]1C2" .
Result block: n

Query block: Try the compound "CN(C)[C@@H]1C(O)=C(C(N)=O)C(=O)[C@@]2(O)C(O)=C3C(=O)c4c(O)c(NC(=O)CN5CCC5)cc(F)c4C[C@H]3C[C@@H]12"
Result block: y

Query block: Same question, "COC[C@H]1CCCN1CC(=O)Nc1cc(F)c2c(c1O)C(=O)C1=C(O)[C@]3(O)C(=O)C(C(N)=O)=C(O)[C@@H](N(C)C)[C@@H]3C[C@@H]1C2" this time
Result block: n

Query block: Cool, now "CCCNCC(=O)Nc1cc(F)c2c(c1O)C(=O)C1=C(O)[C@]3(O)C(=O)C(C(N)=O)=C(O)[C@@H](N(C)C)[C@@H]3C[C@@H]1C2"
Result block: y

Query block: What would you report for "CN(C)[C@@H]1C(O)=C(C(N)=O)C(=O)[C@@]2(O)C(O)=C3C(=O)c4c(O)c(NC(=O)CNC5CC5)cc(F)c4C[C@H]3C[C@@H]12" ?
Result block: n

Query block: Further, for "CN(C)[C@@H]1C(O)=C(C(N)=O)C(=O)[C@@]2(O)C(O)=C3C(=O)c4c(O)c(NC(=O)CNCC5CC5)cc(F)c4C[C@H]3C[C@@H]12" ?
Result block: y

Query block: Please answer likewise for "CCCCCNCC(=O)Nc1cc(F)c2c(c1O)C(=O)C1=C(O)[C@]3(O)C(=O)C(C(N)=O)=C(O)[C@@H](N(C)C)[C@@H]3C[C@@H]1C2"
Result block: n

Query block: Then this compound: "CC(C)CNCC(=O)Nc1cc(F)c2c(c1O)C(=O)C1=C(O)[C@]3(O)C(=O)C(C(N)=O)=C(O)[C@@H](N(C)C)[C@@H]3C[C@@H]1C2"
Result block: y

Query block: How about "COC[C@@H]1CCCN1CC(=O)Nc1cc(F)c2c(c1O)C(=O)C1=C(O)[C@]3(O)C(=O)C(C(N)=O)=C(O)[C@@H](N(C)C)[C@@H]3C[C@@H]1C2" ?
Result block: n

---

Tested on: K. pneumoniae KP153 (tet resistant: tetA efflux)
Experiment: microbe, parasite or virus in culture
Assay type: cell-based
Details: Klebsiella pneumoniae, read-out: MICs KP153
MEASURE: MIC

Query block: Entry "CN(C)[C@@H]1C(O)=C(C(N)=O)C(=O)[C@@]2(O)C(O)=C3C(=O)c4c(O)c(NC(=O)CN5CC[C@@H](O)C5)cc(F)c4C[C@H]3C[C@@H]12" , system K. pneumoniae KP153 (tet resistant: tetA efflux): what MIC was measured?
Result block: > 32 µg/mL

Query block: # repeat for "CN(C)[C@@H]1C(O)=C(C(N)=O)C(=O)[C@@]2(O)C(O)=C3C(=O)c4c(O)c(NC(=O)CN5CCOCC5)cc(F)c4C[C@H]3C[C@@H]12"
Result block: > 32 µg/mL

Query block: Try this molecule next: CN(C)[C@@H]1C(O)=C(C(N)=O)C(=O)[C@@]2(O)C(O)=C3C(=O)c4c(O)c(NC(=O)CC5CC(F)C5)cc(F)c4C[C@H]3C[C@@H]12 (stereo partly drawn)
Result block: > 32 µg/mL

---

Answer each item with its documented ED50.
System: S. aureus isolate, ATCC 13709
Test: ED50 IV study, mouse systemic infection model
Assay type: in vivo
Settings: Staphylococcus aureus, ATCC13709, mg/kg required to protect 50% of mice in septicemia model with S. aureus Smith strain, 60 minutes post infection, 48 hour survival
Give the value in mg/kg but do not write mg/kg after it.

Query block: Need ED50 of CC(C)NCC(=O)Nc1cc(F)c2c(c1O)C(=O)C1=C(O)[C@]3(O)C(=O)C(C(N)=O)=C(O)[C@@H](N(C)C)[C@@H]3C[C@@H]1C2 [drawing 219] , thanks.
Result block: 0.3

Query block: Can you handle CN(C)[C@@H]1C(O)=C(C(N)=O)C(=O)[C@@]2(O)C(O)=C3C(=O)c4c(O)c(NC(=O)CNC(C)(C)C)cc(F)c4C[C@H]3C[C@@H]12 [drawing 214] next?
Result block: 0.3

Query block: Can you check CN(C)[C@@H]1C(O)=C(C(N)=O)C(=O)[C@@]2(O)C(O)=C3C(=O)c4c(O)c(NC(=O)CN5CCCC5)cc(F)c4C[C@H]3C[C@@H]12 [drawing 217] next?
Result block: 0.3
